System: Pseudomonas aeruginosa
assay-notes: Antimicrobial activity against Pseudomonas aeruginosa MTCC 1034 after 18 hrs by broth micro dilution method
Assay type: functional
measurement-conditions: MTCC 1034, 18 h
MIC strictly less than 100 µg/mL = 1 (yes). Otherwise 0 (no).

Query :: Is it true that MIC reported for O=C1COc2ccc(S(=O)(=O)NCCCN3CCN(c4ccccc4F)CC3)cc2N1 is less than 100 µg/mL?
Result :: 1 (yes)

Query :: Is it true that MIC reported for O=C1COc2ccc(S(=O)(=O)NCCCN3CCN(c4ccccc4)CC3)cc2N1 is less than 100 µg/mL?
Result :: 0 (no)

Query :: Is it true that MIC reported for Cc1ccc(C(=O)CN2C(=O)COc3cc(C)c(S(=O)(=O)N4CCN(c5ccc(C(F)(F)F)cc5)CC4)cc32)cc1 is less than 100 µg/mL?
Result :: 1 (yes)

Query :: Is it true that MIC reported for COc1ccccc1N1CCN(S(=O)(=O)c2cc3c(cc2C)OCC(=O)N3CC(=O)c2ccc(C)cc2)CC1 is less than 100 µg/mL?
Result :: 1 (yes)

Query :: Is it true that MIC reported for CO[C@H]1/C=C/O[C@@]2(C)Oc3c(C)c(O)c4c(O)c(c(/C=N/N5CCN(C)CC5)c(O)c4c3C2=O)NC(=O)/C(C)=C\C=C\[C@H](C)[C@H](O)[C@@H](C)[C@@H](O)[C@@H](C)[C@H](OC(C)=O)[C@@H]1C is less than 100 µg/mL?
Result :: 1 (yes)

Query :: Is it true that MIC reported for O=C1COc2ccc(S(=O)(=O)NCCCN3CCN(c4ccc(C(F)(F)F)cc4)CC3)cc2N1 is less than 100 µg/mL?
Result :: 0 (no)

Query :: Is it true that MIC reported for Cc1cc2c(cc1S(=O)(=O)N1CCN(c3ccc(C(F)(F)F)cc3)CC1)N(CC(=O)c1ccc([N+](=O)[O-])cc1)C(=O)CO2 is less than 100 µg/mL?
Result :: 1 (yes)

Query :: Is it true that MIC reported for COc1ccccc1N1CCN(S(=O)(=O)c2cc3c(cc2C)OCC(=O)N3CC(=O)c2ccc(-c3ccccc3)cc2)CC1 is less than 100 µg/mL?
Result :: 0 (no)

Query :: Is it true that MIC reported for Cc1cc2c(cc1S(=O)(=O)N1CCN(c3ccc(C(F)(F)F)cc3)CC1)N(CC(=O)c1ccc(Cl)cc1)C(=O)CO2 is less than 100 µg/mL?
Result :: 0 (no)

Query :: Is it true that MIC reported for COc1ccccc1N1CCN(S(=O)(=O)c2cc3c(cc2C)OCC(=O)N3)CC1 is less than 100 µg/mL?
Result :: 0 (no)

Query :: Is it true that MIC reported for Cc1cc2c(cc1S(=O)(=O)N1CCN(c3ccc(C(F)(F)F)cc3)CC1)NC(=O)CO2 is less than 100 µg/mL?
Result :: 0 (no)

Query :: Is it true that MIC reported for COc1ccc(C(=O)CN2C(=O)COc3cc(C)c(S(=O)(=O)N4CCN(c5ccccc5OC)CC4)cc32)cc1 is less than 100 µg/mL?
Result :: 1 (yes)

Query :: Is it true that MIC reported for COc1ccccc1N1CCN(CCCNS(=O)(=O)c2ccc3c(c2)NC(=O)CO3)CC1 is less than 100 µg/mL?
Result :: 0 (no)

Query :: Is it true that MIC reported for Cc1cc2c(cc1S(=O)(=O)NCCCN1CCN(c3ccccc3F)CC1)NC(=O)CO2 is less than 100 µg/mL?
Result :: 0 (no)

Query :: Is it true that MIC reported for COc1ccccc1N1CCN(S(=O)(=O)c2cc3c(cc2C)OCC(=O)N3CC(=O)c2cccs2)CC1 is less than 100 µg/mL?
Result :: 0 (no)

Query :: Is it true that MIC reported for COc1ccccc1N1CCN(S(=O)(=O)c2cc3c(cc2C)OCC(=O)N3CC(=O)c2ccc([N+](=O)[O-])cc2)CC1 is less than 100 µg/mL?
Result :: 0 (no)

Query :: Is it true that MIC reported for Cc1cc2c(cc1S(=O)(=O)NCCCN1CCSCC1)NC(=O)CO2 is less than 100 µg/mL?
Result :: 0 (no)

Query :: Is it true that MIC reported for COc1ccc(C(=O)CN2C(=O)COc3cc(C)c(S(=O)(=O)N4CCN(c5ccc(C(F)(F)F)cc5)CC4)cc32)cc1 is less than 100 µg/mL?
Result :: 0 (no)

Query :: Is it true that MIC reported for O=C1COc2ccc(S(=O)(=O)NCCCN3CCN(c4ccc(F)cc4)CC3)cc2N1 is less than 100 µg/mL?
Result :: 1 (yes)

Where do these numbers come from? They come from ChEMBL document CHEMBL3397028.
